Target: ZNF579 (UniProt Q8NAF0)
Sequence (Q8NAF0 whole entry, looked up): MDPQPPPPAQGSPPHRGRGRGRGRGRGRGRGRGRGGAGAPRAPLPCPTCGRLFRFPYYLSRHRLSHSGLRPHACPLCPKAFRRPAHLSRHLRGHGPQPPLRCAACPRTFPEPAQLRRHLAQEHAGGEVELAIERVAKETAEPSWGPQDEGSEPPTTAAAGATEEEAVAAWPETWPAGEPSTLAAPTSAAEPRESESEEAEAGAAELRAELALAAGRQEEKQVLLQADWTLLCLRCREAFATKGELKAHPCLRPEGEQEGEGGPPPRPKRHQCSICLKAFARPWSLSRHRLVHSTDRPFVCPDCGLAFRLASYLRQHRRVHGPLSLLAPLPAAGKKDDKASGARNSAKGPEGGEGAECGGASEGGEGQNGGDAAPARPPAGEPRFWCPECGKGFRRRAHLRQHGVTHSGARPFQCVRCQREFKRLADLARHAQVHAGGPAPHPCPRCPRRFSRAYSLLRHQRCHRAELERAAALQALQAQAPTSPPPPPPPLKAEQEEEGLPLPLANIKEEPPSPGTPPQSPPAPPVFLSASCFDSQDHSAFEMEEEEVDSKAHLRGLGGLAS
Test: log2 fold change, soluble protein after heating vs DMSO (PISA); higher = thermal stabilisation; K562 cells, 10 uM, 30 min; active = over 0.2 and 3.5 SD of the protein, either way, in both replicates (recomputed)
About 7,900 targets were measured; listed, in parts, are those with a hit and a random draw of the rest. About 0.6% of all pairs of compound and target were hits.
Each entry gets Not met if its log2 fold change stays under 0.04, and Met if its log2 fold change is 0.04 or above.

COMPOUND: CCCS(=O)(=O)Nc1ccc(F)c(C(=O)c2c[nH]c3ncc(-c4ccc(Cl)cc4)cc23)c1F
LABEL VALUE: Not met

COMPOUND: CCn1c(C(=O)N(C2CC2)C2CC2)cc2c3c(ncn3C)c(Nc3cc(C)n(C)n3)nc21
LABEL VALUE: Not met

COMPOUND: COc1cc2nc(-c3cc(F)ccc3O)nc(N[C@@H]3CNC[C@H]3C(C)(C)O)c2cc1OC
LABEL VALUE: Met

COMPOUND: Cc1ccc(Sc2cncc3sc(C(N)=O)cc23)cc1
LABEL VALUE: Not met

COMPOUND: CC[C@H](C)n1cc(C)c2c(C(=O)NCc3c(C)cc(C)[nH]c3=O)cc(-c3ccc(N4CCNCC4)nc3)cc21
LABEL VALUE: Met

COMPOUND: CCCc1cc(C)[nH]c(=O)c1CNC(=O)c1cc(-c2ccnc(N3CCN(C)CC3)c2)cc2c1cnn2C(C)C
LABEL VALUE: Met

COMPOUND: CN1CCN(CCOc2cc(OC3CCOCC3)c3c(Nc4c(Cl)ccc5c4OCO5)ncnc3c2)CC1
LABEL VALUE: Not met

COMPOUND: CNC(=O)c1ccccc1Nc1nc(Nc2ccc(N3CCOCC3)cc2OC)ncc1Cl
LABEL VALUE: Not met

COMPOUND: CCN(CCCOc1ccc2c(Nc3cc(CC(=O)Nc4cccc(F)c4)[nH]n3)ncnc2c1)CCOP(=O)(O)O
LABEL VALUE: Not met

COMPOUND: O=C(CCCCCCC(=O)Nc1ccccc1)NO
LABEL VALUE: Not met

COMPOUND: CNCc1ccc(-c2[nH]c3cc(F)cc4c3c2CCNC4=O)cc1
LABEL VALUE: Not met

COMPOUND: O=C1c2ccccc2-c2n[nH]c3cccc1c23
LABEL VALUE: Met

COMPOUND: CC(C)N(C[C@H]1O[C@@H](n2cnc3c(N)ncnc32)[C@H](O)[C@@H]1O)[C@H]1C[C@@H](CCc2nc3cc(C(C)(C)C)ccc3[nH]2)C1
LABEL VALUE: Not met

COMPOUND: C#Cc1cccc(Nc2ncnc3cc(OCCOC)c(OCCOC)cc23)c1
LABEL VALUE: Not met

COMPOUND: Cc1cc(Nc2cc(CN3CCOCC3)c3nc(C)c(Cc4ccc(Cl)cc4F)n3n2)n[nH]1
LABEL VALUE: Not met

COMPOUND: Cc1cccc(CC(=O)N2CCc3c2ccc(-c2cn(C)c4ncnc(N)c24)c3F)n1
LABEL VALUE: Not met

COMPOUND: CCn1cc(-c2ccnc3[nH]c(-c4cccc(CN(C)C)c4)cc23)c(-c2ccc(NC(=O)N(C)C)cc2)n1
LABEL VALUE: Met
